What concentration at 1 h was measured for each of the following?
Test: Brain and plasma concentrations in mice after intraperitoneal administration (LC-MS-MS), non-compartmental analysis
Type: in vivo
Conditions: male, Swiss-Webster, mouse, plasma, ip, 10 mg/kg, 1 h, 10 mg/kg i.p.; read-out: mean (plasma)
Procedure: Doses are reported by weight of the specified salt. […] Body mass was measured to ±0.1 g. Mice were sacrificed by cervical dislocation, then decapitated for collection of brain and blood samples. […] Drug concentrations (ng mL^-1) refer to the free base, and were measured by liquid chromatography-tandem mass spectrometry (LC-MS-MS) as described previously. […] Compounds were detected in positive ion mode, tuned to the mass transition with the largest intensity. […]
Enter your answer as a number in ng/mL; do not include the unit.

Inquiry: Fill in reported concentration at 1 h for this entry: Oc1ccc2c3c1O[C@H]1c4[nH]c5c(c4C[C@@]4(O)[C@@H](C2)N(CC2CC2)CC[C@]314)C[C@@]1(O)[C@H]2Cc3ccc(O)c4c3[C@@]1(CCN2CC1CC1)[C@H]5O4 [nor-BNI, norbinaltorphimine]
Reply text: 1790

Inquiry: Read off the recorded concentration at 1 h for CC(C)[C@@H](CN1CC[C@@](C)(c2cccc(O)c2)[C@@H](C)C1)NC(=O)[C@H]1Cc2ccc(O)cc2CN1 [JDTic]
Reply text: 154

Inquiry: Return value of concentration at 1 h for input N=C(N)Nc1ccc2[nH]c3c(c2c1)C[C@@]1(O)[C@H]2Cc4ccc(O)c5c4[C@@]1(CCN2CC1CC1)[C@H]3O5 [GNTI, 5’-guanidinonaltrindole] , no commentary.
Reply text: 3020

* * *

experiment: Brain and plasma concentrations in mice after intraperitoneal administration (LC-MS-MS), non-compartmental analysis; format: in vivo; settings: male, Swiss-Webster, mouse, in vivo, ip; ·2HCl salts, 10 mg kg^-1 i.p., mice
Parameter Measured: Tmax
State the value with its unit after it.

Inquiry: Hello, please tell me recorded Tmax for this one: `N=C(N)Nc1ccc2[nH]c3c(c2c1)C[C@@]1(O)[C@H]2Cc4ccc(O)c5c4[C@@]1(CCN2CC1CC1)[C@H]3O5`
Reply text: 30 min

Inquiry: Using the record for `Oc1ccc2c3c1O[C@H]1c4[nH]c5c(c4C[C@@]4(O)[C@@H](C2)N(CC2CC2)CC[C@]314)C[C@@]1(O)[C@H]2Cc3ccc(O)c4c3[C@@]1(CCN2CC1CC1)[C@H]5O4` , state its measured Tmax.
Reply text: 30 min

Inquiry: Answer with the recorded Tmax of `CC(C)[C@@H](CN1CC[C@@](C)(c2cccc(O)c2)[C@@H](C)C1)NC(=O)[C@H]1Cc2ccc(O)cc2CN1` only.
Reply text: 30 min

* * *

assay: Brain and plasma concentrations in mice after intraperitoneal administration (LC-MS-MS), non-compartmental analysis; assay type: in vivo; details: male, Swiss-Webster, mouse, plasma, ip, 10 mg/kg, 24 h, 10 mg/kg i.p., individual mice; read-out: [drug],plasma (free base equivalent)
Kindly supply the reported concentration at 24 h values for the records listed here.
Write it as a number; the unit ng/mL goes unstated.

Inquiry: Provide only the value of recorded concentration at 24 h for `CC(C)[C@@H](CN1CC[C@@](C)(c2cccc(O)c2)[C@@H](C)C1)NC(=O)[C@H]1Cc2ccc(O)cc2CN1`
Reply text: 5

Inquiry: State, in one line, measured concentration at 24 h of `N=C(N)Nc1ccc2[nH]c3c(c2c1)C[C@@]1(O)[C@H]2Cc4ccc(O)c5c4[C@@]1(CCN2CC1CC1)[C@H]3O5`
Reply text: 13
